- TEST NAME: Cmax in BALB/c mouse
- Format: ADME, organism-based
- EXPERIMENTAL CONTEXT: in vivo
MEASURED PROPERTY: Cmax (µM)

Some entries whose results are on file:
| MOLECULE | OBSERVED |
| --- | --- |
| CCOC(=O)[C@](C)(Cc1ccccc1)c1ccnc2c(-c3ccc(C(F)(F)F)cc3)cnn12 | 1.7 |
| CCOC(=O)[C@](C)(Cc1ccccc1)c1cnnc2c(-c3ccc(C(F)(F)F)cc3)cnn12 | 2.5 |

[I] COCCN(C)C(=O)C(C)(Cc1ccccc1)c1ccnc2c(-c3ccc(C(F)(F)F)cc3)cnn12 (racemic)
[II] CCOC(=O)[C@](C)(Cc1ccccc1)c1ccnc2c(-c3ccc(Cl)cc3)cnn12
Ask: For I and II , which recorded Cmax is lower? Reply briefly: the label of your chosen item.
Result: II
